- Test system: Hs27
- experiment: MTT assay, Hs27 fibroblasts (normal)
- Type: cell-based
- condition parameters: Homo sapiens, 72 h, 95% confidence intervals in parentheses
quantity measured: IC50 (nM)
Give just the number in nM; leave the unit off.

Requested read-out IC50, target or system Hs27, entry Cc1nn(-c2ccc(S(=O)(=O)N[C@H](C)CO)cc2)c2nn3nnnc3nc12 620

Requested read-out IC50, target or system Hs27, entry Cc1nn(-c2ccc(S(=O)(=O)N[C@@H](C)CO)cc2)c2nn3nnnc3nc12 810

Requested read-out IC50, target or system Hs27, entry COC(=O)C1CC(O)CN1S(=O)(=O)c1ccc(-n2nc(C)c3nc4nnnn4nc32)cc1 (stereo not drawn) 1150
